molecular target: human TRPV4 (Homo sapiens, UniProt Q9HBA0); construct: The full length of each of human transient receptor potential ankyrin 1 (TRPA1); expressed in transfected cells; experiment: Ca2+ influx assay for TRP channel agonistic activity in T-REx-293 cells; type: cell-based; details: 10 µmol/L test ingredient, positive control 4 µmol/L GSK1016790A, read-out: % Activation compared to positive control, TRPV4
Sequence (Q9HBA0 whole entry): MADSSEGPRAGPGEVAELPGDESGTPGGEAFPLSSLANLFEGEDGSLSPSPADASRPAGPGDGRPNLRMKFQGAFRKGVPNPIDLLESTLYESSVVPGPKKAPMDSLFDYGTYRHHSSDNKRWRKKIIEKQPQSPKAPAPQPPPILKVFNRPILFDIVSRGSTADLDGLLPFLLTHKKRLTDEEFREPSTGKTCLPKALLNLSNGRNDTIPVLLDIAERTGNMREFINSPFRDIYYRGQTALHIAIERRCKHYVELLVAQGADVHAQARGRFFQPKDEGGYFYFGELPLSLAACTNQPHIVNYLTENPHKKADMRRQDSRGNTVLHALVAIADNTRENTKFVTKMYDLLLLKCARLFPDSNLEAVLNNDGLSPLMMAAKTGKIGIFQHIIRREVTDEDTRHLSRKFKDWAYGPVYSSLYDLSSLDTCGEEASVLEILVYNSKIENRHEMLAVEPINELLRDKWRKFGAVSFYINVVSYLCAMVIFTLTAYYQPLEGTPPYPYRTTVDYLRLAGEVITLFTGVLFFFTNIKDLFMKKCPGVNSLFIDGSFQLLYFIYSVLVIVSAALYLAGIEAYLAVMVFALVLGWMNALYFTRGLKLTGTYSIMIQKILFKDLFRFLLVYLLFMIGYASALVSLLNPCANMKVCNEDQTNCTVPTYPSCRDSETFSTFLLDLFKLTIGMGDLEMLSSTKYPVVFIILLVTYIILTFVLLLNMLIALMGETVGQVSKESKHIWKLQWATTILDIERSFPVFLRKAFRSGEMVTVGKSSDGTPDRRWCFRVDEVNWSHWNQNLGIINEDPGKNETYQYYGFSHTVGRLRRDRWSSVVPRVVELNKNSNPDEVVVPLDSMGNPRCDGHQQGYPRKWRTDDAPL
measurementLabel: activation at 10 µM (%)
Please respond with the number in % and leave the unit unwritten.

Below are worked cases with known answers.
CC12CC(O)C3CC1(OC1OC(CO)C(O)C(O)C1O)C3(COC(=O)c1ccccc1)C(=O)O2 (stereo not drawn); -1
CC12CC3(O)OC(O1)C1(CO)C3CC21OC1OC(CO)C(O)C(O)C1O (stereo not drawn); 1
CCCC[C@@H]1OC(=O)C2=C1CCC=C2 [Senkyunolide A]; 0
OC[C@H]1O[C@@H](O[C@@H]2OC=C[C@H]3[C@H](O)[C@@H]4O[C@]4(CO)[C@@H]23)[C@H](O)[C@@H](O)[C@@H]1O; 0
CCCCC1OC(=O)c2ccccc21 (stereo not drawn) [Butylphthalide]; 0

Exercise: For COc1cc(/C=C/C(=O)O)ccc1O , what is its reported activation at 10 µM?
Key: 0

Exercise: Now try COc1c2ccoc2cc2oc(=O)ccc12 .
Key: 0

Exercise: Next compound: CCC/C=C1\OC(=O)C2=C1CCC=C2 [Ligustilide]
Key: -1

Exercise: Subsequent entry: C[C@@]12C[C@@]3(O)O[C@@H](O1)[C@]1(COC(=O)c4ccccc4)[C@H]3C[C@@]12O[C@@H]1O[C@H](CO)[C@@H](O)[C@H](O)[C@H]1O
Key: 0

Ref: paper PMC7902330
